System: D(3) dopamine receptor (Homo sapiens) | Read-out: Ki | Origin: multiple publications
The response must be a number in nM with no trailing unit.

Exercise: # assay system D(3) dopamine receptor (Homo sapiens): give Ki of COc1ccc2c(c1OC)CCN1CCc3cc4c(cc3C1C2)OCO4 (stereo not given)
Solution: 27.3

Exercise: # assay system D(3) dopamine receptor (Homo sapiens): give Ki of COc1ccccc1N1CCN(CCN(C(=O)C2CCCCC2)c2ccccn2)CC1
Solution: 67

Exercise: # assay system D(3) dopamine receptor (Homo sapiens): give Ki of CC[C@@H](CO)NCc1ccc(-c2cccc(Cl)c2C)o1
Solution: 817

Exercise: # assay system D(3) dopamine receptor (Homo sapiens): give Ki of c1ccc(Cn2cncn2)c(CNCc2ccc(-n3ccnc3)cc2)c1
Solution: 10000

Exercise: # assay system D(3) dopamine receptor (Homo sapiens): give Ki of N#Cc1ccc2c(c1)[C@H]1CN(CCCCNC(=O)c3ccc(-c4ccccc4)cc3)C[C@@H]1CO2
Solution: 0.26

Exercise: # assay system D(3) dopamine receptor (Homo sapiens): give Ki of CC(C)NCc1ccc(-c2ccccc2)o1
Solution: 8890

Exercise: # assay system D(3) dopamine receptor (Homo sapiens): give Ki of NC1CCc2cc(OC(=O)c3ccccc3)c(OC(=O)c3ccccc3)cc2C1 (stereo not given)
Solution: 160

Exercise: # assay system D(3) dopamine receptor (Homo sapiens): give Ki of CCSc1nnc2n1CCCN2C(=O)CN1CCOCC1
Solution: 9830

Exercise: # assay system D(3) dopamine receptor (Homo sapiens): give Ki of CCCN(CC[C@]1(O)C[C@@H](NC(=O)c2ccc3ccccc3c2)C1)[C@H]1C[C@@H]1c1ccccc1Cl
Solution: 22
